- System: 3T3 cells
- Protocol Summary: Cytotoxicity against 3T3 cells
- Format: cell-based
Attribute Measured: log10 of EC50 (log10 of the value in µM)

{"columns": ["Compound", "log10 of EC50"],
 "data": [
  ["CC1(C)c2cc(-c3cccc(CCN)c3)ccc2-c2ccc(-c3cccc(CCN)c3)cc21 [Compound 281]", 0.30],
  ["N=C(N)NCCCc1ccc(-c2ccc(-c3ccc(CCCNC(=N)N)cc3)s2)cc1 [Compound 266]", 1.58],
  ["NCCc1cccc(-c2cncc(-c3ccc(-c4cncc(-c5cccc(CCN)c5)c4)s3)c2)c1 [Compound 223]", 1.26],
  ["N=C(N)NCCSc1ccc(NC(=O)Nc2ccc(SCCCN)c(C(F)(F)F)c2)cc1C(F)(F)F [Compound 275]", 2.09],
  ["NCCCc1ccc(-c2ccc(-c3ccc(CCCN)cc3)s2)cc1 [Compound 263]", 0.78],
  ["N=C(N)NCCCc1cccc(-c2cc(-c3cccc(CCCNC(=N)N)c3)ncn2)c1 [Compound 135]", 2.79],
  ["NCCCOc1cccc(-c2ccc(-c3cccc(OCCCN)c3)s2)c1 [Compound 241]", 1.53],
  ["NCCSc1c(NC(=O)c2cc(C(=O)Nc3cc(C(F)(F)F)cc(NC(=O)c4cccs4)c3SCCN)ncn2)cc(C(F)(F)F)cc1NC(=O)c1cccs1 [Compound 311]", 2.97],
  ["CN(C)CCSc1ccc(NC(=O)c2cc(C(=O)Nc3ccc(SCCN(C)C)cc3)ncn2)cc1 [Compound 202]", 2.80],
  ["CCN(CC)CCN(CCN)c1c(Cl)cc(C(F)(F)F)cc1NC(=O)Nc1cc(C(F)(F)F)cc(Cl)c1N(CCN)CCN(CC)CC [Compound 124]", 1.30],
  ["N=C(N)NCCc1cccc(-c2cncc(-c3ccc(-c4cncc(-c5cccc(CCNC(=N)N)c5)c4)cc3)c2)c1 [Compound 231]", 3.00],
  ["O=C(Nc1ccc(SCCNC2=NCCN2)c(C(F)(F)F)c1)Nc1ccc(SCCNC2=NCCN2)c(C(F)(F)F)c1 [Compound 268]", 1.87],
  ["O=C(Nc1ccc(OC2CCNCC2)cc1)c1cc(C(=O)Nc2ccc(OC3CCNCC3)cc2)ncn1 [Compound 199]", 2.28],
  ["O=C(Nc1ccc(OC2CCNC2)c(F)c1)c1cc(C(=O)Nc2ccc(OC3CCNC3)c(F)c2)ncn1 (stereo not drawn) [Compound 209]", 2.63],
  ["CCN(CC)CCN(CCN)c1ccc(C(F)(F)F)cc1NC(=O)Nc1cc(C(F)(F)F)ccc1N(CCN)CCN(CC)CC [Compound 126]", 2.15],
  ["CN(C)C1CCN(c2ccc(NC(=O)c3cc(C(=O)Nc4ccc(N5CCC(N(C)C)CC5)cc4)ncn3)cc2)CC1 [Compound 213]", 2.39],
  ["N=C(N)NCCc1cccc(-c2ccc(-c3cccc(CCNC(=N)N)c3)cc2)c1 [Compound 239]", 2.17],
  ["O=C(Nc1ccc(O[C@@H]2CCNC2)c(C(F)(F)F)c1)c1cc(C(=O)Nc2ccc(O[C@@H]3CCNC3)c(C(F)(F)F)c2)ncn1 [Compound 187]", 1.62],
  ["N=C(N)NCCCCC(=O)Nc1cc(F)cc(NC(=O)c2cc(C(=O)Nc3cc(F)cc(NC(=O)CCCCNC(=N)N)c3SCCN)ncn2)c1SCCN [Compound 105]", 1.64],
  ["Nc1cc(NC(=O)c2cc(C(=O)Nc3ccc(N4CCNCC4)c(F)c3)ncn2)ccc1N1CCNCC1 [Compound 218]", 1.66],
  ["CCN(CC)CCN(CCN)c1c(F)cc(C(F)(F)F)cc1NC(=O)Nc1cc(C(F)(F)F)cc(F)c1N(CCN)CCN(CC)CC [Compound 127]", 2.12],
  ["N=C(N)NCCCn1c2ccc(C3=CCN(C(=N)N)CC3)cc2c2cc(C3=CCN(C(=N)N)CC3)ccc21 [Compound 289]", 2.39],
  ["NCCc1cccc(-c2ccc(-c3cccc(CCN)c3)cc2)c1 [Compound 235]", 1.15],
  ["CCn1c2ccc(C3CCN(C(=N)N)CC3)cc2c2cc(C3CCN(C(=N)N)CC3)ccc21 [Compound 285]", 2.77],
  ["N=C(N)N1CC=C(c2ccc3sc4ccc(C5=CCN(C(=N)N)CC5)cc4c3c2)CC1 [Compound 286]", 1.92]
]}
